As an illustration, consider measured IC50 for compounds on ErbB4 (Homo sapiens, UniProt Q15303).

For orientation, consider the following solved cases.
cpd.smiles: Cc1cccc(Nc2ncnc(N3CCCc4ccc(C(F)(F)F)cc43)n2)c1
measured.attribute: IC50
test.result: > 11.7 µM

cpd.smiles: COc1cc(Nc2ncnc(Nc3ccc4[nH]ncc4c3)n2)cc(OC)c1OC
measured.attribute: IC50
test.result: 1.02 to 6.1 µM

cpd.smiles: COc1cc(Nc2ncnc(N(CCC(C)C)c3ccc(Cl)cc3)n2)cc(OC)c1OC
measured.attribute: IC50
test.result: 5.24 to 7.64 µM

cpd.smiles: COc1cc(Nc2ncnc(-n3c(NCc4ccc(Cl)cc4)nc4ccccc43)n2)cc(OC)c1OC
measured.attribute: IC50
test.result: > 8.69 µM

Item under review: COc1cc(Nc2ncnc(Nc3cc(C)ccc3C)n2)cc(OC)c1OC . Reported IC50?
1.05 to 6.29 µM

Item under review: COc1cc(Nc2ncnc(Nc3ccc(C)cc3)n2)cc(OC)c1OC . Reported IC50?
1.09 to 6.53 µM

Item under review: COc1cc(Nc2ncnc(Nc3cc(OC)c(OC)c(OC)c3)n2)cc(OC)c1 . Reported IC50?
0.968 to 5.81 µM

Item under review: COc1cc2ccn(-c3ncnc(Nc4cc(OC)c(OC)c(OC)c4)n3)c2cc1OC . Reported IC50?
> 10.3 µM

---

system.tested: AKT (Homo sapiens)
Construct: Kinases are expressed as either kinase domains or full length constructs; made in house
Sequence (Q9Y243 whole entry, the tested form may be a part): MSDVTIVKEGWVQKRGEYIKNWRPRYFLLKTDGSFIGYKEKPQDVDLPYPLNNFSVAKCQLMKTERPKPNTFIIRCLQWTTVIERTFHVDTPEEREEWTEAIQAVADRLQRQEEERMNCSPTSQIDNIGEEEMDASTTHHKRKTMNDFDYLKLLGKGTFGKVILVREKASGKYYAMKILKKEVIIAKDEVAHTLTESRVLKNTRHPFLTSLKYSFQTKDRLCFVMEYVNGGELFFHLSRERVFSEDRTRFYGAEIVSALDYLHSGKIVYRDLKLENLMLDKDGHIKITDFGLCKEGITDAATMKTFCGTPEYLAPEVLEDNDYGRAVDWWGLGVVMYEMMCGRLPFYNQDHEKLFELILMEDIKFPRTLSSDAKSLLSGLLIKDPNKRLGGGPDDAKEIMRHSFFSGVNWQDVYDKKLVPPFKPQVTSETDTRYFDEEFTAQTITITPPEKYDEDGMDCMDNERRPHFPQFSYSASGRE
experiment: Kinase inhibition assay (33P transfer), AKT
Format: biochemical
run.parameters: Table 2, kinase inhibition class; read-out: AKT3-1
measured.attribute: IC50

For orientation, consider the following solved cases.
cpd.smiles: Nc1nc2ccccc2n1-c1ncnc(Nc2ccc(Cl)c(Cl)c2)n1
system.tested: AKT (Homo sapiens)
test.result: 1.07 to 6.45 µM
--
cpd.smiles: COc1cc(Nc2ncnc(-n3c(N)nc4ccccc43)n2)ccc1OCCN1CCOCC1
system.tested: AKT (Homo sapiens)
test.result: > 9.73 µM
--
cpd.smiles: COc1cc(Nc2ncnc(Nc3cc(-c4cccc(Cl)c4)n[nH]3)n2)cc(OC)c1OC
system.tested: AKT (Homo sapiens)
test.result: > 9.91 µM
--
cpd.smiles: O=c1[nH]c2ccccc2n1-c1ncnc(Nc2cc(C(F)(F)F)cc(C(F)(F)F)c2)n1
system.tested: AKT (Homo sapiens)
test.result: > 10.2 µM
--
cpd.smiles: COc1cc(Nc2ncnc(Nc3nc4ccc(F)cc4s3)n2)cc(OC)c1OC
system.tested: AKT (Homo sapiens)
test.result: > 10.5 µM
--
cpd.smiles: COc1cc(Nc2ncnc(-c3cccnc3Cl)n2)cc(OC)c1OC
system.tested: AKT (Homo sapiens)
test.result: > 12 µM
--
cpd.smiles: O=c1[nH]c2ccccc2n1-c1ncnc(Nc2cccc([N+](=O)[O-])c2)n1
system.tested: AKT (Homo sapiens)
test.result: > 12.9 µM
--
cpd.smiles: COc1cc(Nc2ncnc(Nc3cccc4ncccc34)n2)cc(OC)c1OC
system.tested: AKT (Homo sapiens)
test.result: > 11.1 µM

Item under review: COc1cc(Nc2ncnc(Nc3cc(-c4cccs4)n[nH]3)n2)cc(OC)c1OC . Reported IC50?
8.23 to 10.6 µM

Item under review: COc1cc(Nc2ncnc(Nc3ncnc4[nH]cnc34)n2)cc(OC)c1OC . Reported IC50?
> 11.4 µM

Item under review: COc1cc(Nc2ncnc(Nc3cccc(C(C)=O)c3)n2)cc(OC)c1OC . Reported IC50?
> 11.4 µM

Item under review: COc1cc(Nc2ncnc(N3CCCc4ccccc43)n2)cc(OC)c1OC . Reported IC50?
> 11.4 µM

Item under review: COc1cc(Nc2ncnc(Nc3ccc4c(c3)OCO4)n2)cc(OC)c1OC . Reported IC50?
> 11.3 µM

Item under review: Cc1ccc2c(c1)CCCN2c1ncnc(NCCc2c[nH]c3ccccc23)n1 . Reported IC50?
> 11.7 µM

---

system.tested: IGFR-1 (Homo sapiens)
Construct: Kinases are expressed as either kinase domains or full length constructs; made in house
Sequence (P08069 31-1367): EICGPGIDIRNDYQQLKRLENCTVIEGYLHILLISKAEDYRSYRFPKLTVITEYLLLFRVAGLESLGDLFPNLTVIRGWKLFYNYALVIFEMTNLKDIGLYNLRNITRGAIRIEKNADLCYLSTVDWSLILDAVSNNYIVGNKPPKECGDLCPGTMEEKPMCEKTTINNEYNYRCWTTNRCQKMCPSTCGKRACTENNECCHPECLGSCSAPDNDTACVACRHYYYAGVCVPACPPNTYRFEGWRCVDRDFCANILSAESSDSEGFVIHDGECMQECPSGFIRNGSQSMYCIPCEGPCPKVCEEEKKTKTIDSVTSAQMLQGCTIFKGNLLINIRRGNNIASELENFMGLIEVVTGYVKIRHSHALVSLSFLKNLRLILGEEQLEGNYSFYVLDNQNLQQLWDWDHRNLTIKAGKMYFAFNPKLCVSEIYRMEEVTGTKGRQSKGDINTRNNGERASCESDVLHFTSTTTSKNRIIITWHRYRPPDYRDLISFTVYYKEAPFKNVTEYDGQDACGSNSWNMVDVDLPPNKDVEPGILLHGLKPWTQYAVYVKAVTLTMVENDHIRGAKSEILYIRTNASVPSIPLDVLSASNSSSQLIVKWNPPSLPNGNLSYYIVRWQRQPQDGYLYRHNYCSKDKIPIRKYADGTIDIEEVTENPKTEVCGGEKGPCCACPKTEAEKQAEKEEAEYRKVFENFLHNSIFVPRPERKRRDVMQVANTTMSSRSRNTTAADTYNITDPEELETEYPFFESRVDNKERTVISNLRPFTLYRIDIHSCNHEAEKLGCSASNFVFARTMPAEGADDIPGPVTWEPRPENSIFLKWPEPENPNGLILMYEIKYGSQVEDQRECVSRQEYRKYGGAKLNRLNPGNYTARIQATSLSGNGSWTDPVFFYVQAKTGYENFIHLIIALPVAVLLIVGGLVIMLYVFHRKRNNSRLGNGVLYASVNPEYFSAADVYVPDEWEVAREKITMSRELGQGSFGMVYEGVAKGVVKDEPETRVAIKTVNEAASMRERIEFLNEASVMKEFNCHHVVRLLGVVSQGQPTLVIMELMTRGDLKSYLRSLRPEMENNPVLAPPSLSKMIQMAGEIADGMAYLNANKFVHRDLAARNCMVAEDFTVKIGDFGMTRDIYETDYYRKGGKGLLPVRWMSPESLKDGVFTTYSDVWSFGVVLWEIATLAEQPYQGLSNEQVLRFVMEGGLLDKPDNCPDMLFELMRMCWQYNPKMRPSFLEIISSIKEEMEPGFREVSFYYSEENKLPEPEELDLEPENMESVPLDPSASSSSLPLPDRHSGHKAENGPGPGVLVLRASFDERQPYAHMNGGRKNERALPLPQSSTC
experiment: Kinase inhibition assay, IGFR-1 (Table 2)
Assay type: biochemical
run.parameters: Table 2, kinase inhibition class
pIC50: −log10 of the molar value.
measured.attribute: pIC50

compound: COc1cc(Nc2ncnc(N3CCCc4cc(C)ccc43)n2)cc(OC)c1OC
test.result: < 4.96
--
compound: COC(=O)Cc1cccc(Nc2ncnc(-n3c(NCc4ccccn4)nc4ccccc43)n2)c1
test.result: < 5.02
--
compound: COc1ccc(Nc2ncnc(N3CCCc4ccc(C(F)(F)F)cc43)n2)cc1OC
test.result: < 4.98
--
compound: COc1cc(Nc2ncnc(Nc3ccc(NC(C)=O)c(C(F)(F)F)c3)n2)cc(OC)c1OC
test.result: 5.14 to 5.30
--
compound: Cc1ccc2c(c1)CCCN2c1ncnc(Nc2cccc(-c3cnco3)c2)n1
test.result: 5.04 to 5.20

Item under review: c1ccc(Cn2ncc3cc(Nc4ncnc(NCC5CCCCC5)n4)ccc32)cc1 . Reported pIC50?
< 4.96

Item under review: COc1cc(Nc2ncnc(N3CCCc4ccc(C(F)(F)F)cc43)n2)cc(OC)c1OC . Reported pIC50?
< 5.01

Item under review: COC(=O)Cc1cccc(Nc2ncnc(Nc3ccc(C)c(O)c3)n2)c1 . Reported pIC50?
5.18 to 5.96

Item under review: COc1cc(Nc2ncnc(-n3c(NCc4ccc(F)cc4Cl)nc4ccccc43)n2)cc(OC)c1OC . Reported pIC50?
< 5.08

Item under review: COc1cc(Nc2ncnc(-c3cccnc3Cl)n2)cc(OC)c1OCCN1CCOCC1 . Reported pIC50?
< 5.02

---

system.tested: EGFR (Homo sapiens)
Construct: Kinases are expressed as either kinase domains or full length constructs; made in house
Sequence (P00533 25-1210, species assumed): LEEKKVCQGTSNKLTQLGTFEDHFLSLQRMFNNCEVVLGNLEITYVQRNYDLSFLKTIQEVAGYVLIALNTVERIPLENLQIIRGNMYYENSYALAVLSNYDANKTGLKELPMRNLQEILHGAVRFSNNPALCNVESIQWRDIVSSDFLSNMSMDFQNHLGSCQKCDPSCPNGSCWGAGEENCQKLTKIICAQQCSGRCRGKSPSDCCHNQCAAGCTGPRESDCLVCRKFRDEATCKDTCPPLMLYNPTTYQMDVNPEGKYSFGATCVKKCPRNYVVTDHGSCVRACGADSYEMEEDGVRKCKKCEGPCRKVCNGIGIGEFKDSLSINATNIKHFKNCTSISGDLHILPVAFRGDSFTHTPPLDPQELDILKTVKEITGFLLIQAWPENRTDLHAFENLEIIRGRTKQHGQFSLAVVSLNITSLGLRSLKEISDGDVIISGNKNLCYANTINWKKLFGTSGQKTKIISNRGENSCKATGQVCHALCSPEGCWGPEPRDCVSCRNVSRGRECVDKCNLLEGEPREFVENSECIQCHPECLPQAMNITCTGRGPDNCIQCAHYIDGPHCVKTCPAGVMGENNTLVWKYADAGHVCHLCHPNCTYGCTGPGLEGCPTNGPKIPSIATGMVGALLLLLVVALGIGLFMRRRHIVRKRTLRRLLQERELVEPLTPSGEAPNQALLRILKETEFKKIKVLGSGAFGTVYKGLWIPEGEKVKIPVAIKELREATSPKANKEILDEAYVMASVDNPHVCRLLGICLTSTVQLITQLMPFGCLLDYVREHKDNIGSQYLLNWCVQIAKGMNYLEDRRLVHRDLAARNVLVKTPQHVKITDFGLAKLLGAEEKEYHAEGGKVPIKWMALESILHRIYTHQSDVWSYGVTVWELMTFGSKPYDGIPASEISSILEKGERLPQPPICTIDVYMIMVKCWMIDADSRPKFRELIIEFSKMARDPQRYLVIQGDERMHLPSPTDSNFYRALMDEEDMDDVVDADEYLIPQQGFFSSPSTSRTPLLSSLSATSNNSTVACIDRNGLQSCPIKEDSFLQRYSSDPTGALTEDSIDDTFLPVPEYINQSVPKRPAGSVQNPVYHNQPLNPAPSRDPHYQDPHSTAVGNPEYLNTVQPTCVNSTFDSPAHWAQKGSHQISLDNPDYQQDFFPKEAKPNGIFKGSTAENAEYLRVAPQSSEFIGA
experiment: Kinase inhibition assay (33P transfer), EGFR
Format: biochemical
run.parameters: Table 2, kinase inhibition class; read-out: EGFR-1
pIC50: −log10 of the molar value.
measured.attribute: pIC50

For orientation, consider the following solved cases.
cpd.smiles: CN1CCN(Cc2cccc(Nc3ncnc(Nc4ccc5c(cnn5Cc5ccccc5)c4)n3)c2)CC1
measured.attribute: pIC50
test.result: < 5.05

cpd.smiles: COc1ccc(CCNc2ncnc(N3CCCc4cc(C)ccc43)n2)cc1OC
measured.attribute: pIC50
test.result: < 4.95

cpd.smiles: CCc1ccc(Nc2ncnc(-n3c(N)nc4ccccc43)n2)cc1
measured.attribute: pIC50
test.result: 5.14 to 5.92

Item under review: COc1cc(Nc2ncnc(Nc3ccc(Cl)c4ccccc34)n2)cc(OC)c1OC . Reported pIC50?
> 6.04

---

system.tested: c-Met (Homo sapiens, UniProt P08581)
Construct: Kinases are expressed as either kinase domains or full length constructs; made in house
Sequence (P08581 25-1390): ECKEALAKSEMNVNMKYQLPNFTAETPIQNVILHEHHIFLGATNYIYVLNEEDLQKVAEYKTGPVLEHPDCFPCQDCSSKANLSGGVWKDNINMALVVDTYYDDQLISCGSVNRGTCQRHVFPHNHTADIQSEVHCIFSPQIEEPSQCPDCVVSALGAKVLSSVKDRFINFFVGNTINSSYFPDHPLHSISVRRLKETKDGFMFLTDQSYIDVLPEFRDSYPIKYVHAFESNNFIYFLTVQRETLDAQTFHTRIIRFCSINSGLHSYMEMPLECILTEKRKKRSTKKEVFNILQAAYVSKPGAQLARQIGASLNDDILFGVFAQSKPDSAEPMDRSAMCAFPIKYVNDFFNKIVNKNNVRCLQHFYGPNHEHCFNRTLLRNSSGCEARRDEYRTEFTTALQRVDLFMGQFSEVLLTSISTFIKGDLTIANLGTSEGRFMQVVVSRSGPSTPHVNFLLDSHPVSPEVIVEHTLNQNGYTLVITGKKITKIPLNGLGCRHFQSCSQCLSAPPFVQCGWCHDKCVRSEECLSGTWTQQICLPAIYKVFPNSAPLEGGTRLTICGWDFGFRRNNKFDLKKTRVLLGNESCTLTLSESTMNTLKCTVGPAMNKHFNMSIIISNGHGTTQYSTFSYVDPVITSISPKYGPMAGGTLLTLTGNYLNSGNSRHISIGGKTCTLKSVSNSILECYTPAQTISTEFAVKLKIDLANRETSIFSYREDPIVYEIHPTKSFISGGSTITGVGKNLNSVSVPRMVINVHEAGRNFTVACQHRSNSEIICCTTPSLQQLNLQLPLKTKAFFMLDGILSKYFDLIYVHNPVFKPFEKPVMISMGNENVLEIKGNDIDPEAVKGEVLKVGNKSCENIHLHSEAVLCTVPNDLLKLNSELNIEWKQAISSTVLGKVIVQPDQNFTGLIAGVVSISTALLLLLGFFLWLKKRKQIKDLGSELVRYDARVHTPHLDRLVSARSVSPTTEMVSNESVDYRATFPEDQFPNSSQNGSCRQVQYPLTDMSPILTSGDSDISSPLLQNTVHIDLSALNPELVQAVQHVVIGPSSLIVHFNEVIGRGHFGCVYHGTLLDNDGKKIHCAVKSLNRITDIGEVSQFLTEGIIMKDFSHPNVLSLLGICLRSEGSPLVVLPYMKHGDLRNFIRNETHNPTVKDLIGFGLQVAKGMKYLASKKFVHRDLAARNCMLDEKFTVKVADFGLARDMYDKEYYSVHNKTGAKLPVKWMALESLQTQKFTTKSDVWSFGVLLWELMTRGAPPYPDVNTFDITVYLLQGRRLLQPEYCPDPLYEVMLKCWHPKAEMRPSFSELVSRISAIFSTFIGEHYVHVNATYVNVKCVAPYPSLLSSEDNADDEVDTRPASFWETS
experiment: Kinase inhibition assay (33P transfer), c-Met
Assay type: biochemical
run.parameters: Table 2, kinase inhibition class; read-out: Met-1
pIC50: −log10 of the molar value.
measured.attribute: pIC50

For orientation, consider the following solved cases.
compound: CCOc1ccc(Nc2ncnc(Nc3ccc(C)c(O)c3)n2)cc1OCC
pIC50: 4.93 to 5.04
//
compound: Cc1cccc(Nc2ncnc(N(C)c3cccc(Br)c3)n2)c1
pIC50: 5.02 to 5.19
//
compound: NC(=O)c1ccc(Nc2ncnc(-c3ccccc3)n2)cc1
pIC50: < 4.81
//
compound: CCc1cccc(Nc2ncnc(-n3c(N)nc4ccccc43)n2)c1
pIC50: 5.14 to 5.92
//
compound: COc1ccc(Nc2ncnc(Nc3cc(OC)c(OC)c(OC)c3)n2)cc1
pIC50: < 4.93

Item under review: Clc1cccc(Nc2ncnc(-c3cccs3)n2)c1 . Reported pIC50?
< 4.81

Item under review: COc1cc(Nc2ncnc(-n3c(N[C@H](CO)c4ccccc4)nc4ccccc43)n2)cc(OC)c1OC . Reported pIC50?
< 5.06

Item under review: O=c1[nH]c2ccccc2n1-c1ncnc(Nc2ccncc2)n1 . Reported pIC50?
< 4.83

Item under review: COc1cc(Nc2ncnc(N3CCc4ccc([N+](=O)[O-])cc43)n2)cc(OC)c1OC . Reported pIC50?
< 4.97

---

system.tested: AKT (Homo sapiens)
Construct: Kinases are expressed as either kinase domains or full length constructs; made in house
experiment: Kinase inhibition assay (33P transfer), AKT
Type: biochemical
run.parameters: Table 2, kinase inhibition class; read-out: AKT3-1
Source text: The inhibitor compounds described herein are screened in the following manner. […] Kinases are expressed as either kinase domains or full length constructs fused to glutathione S-transferase (GST) or polyHistidine tagged fusion proteins in either E. colior Baculovirus-High Five expression systems. […]
Listed next: entries and their corresponding IC50.

For orientation, consider the following solved cases.
compound: COc1cc(Nc2ncnc(-c3ccccc3)n2)cc(OC)c1 [Compound 15]
IC50: > 14.6 µM

compound: COc1ccc(Nc2ncnc(Nc3cccc(Br)c3)n2)cc1OC [Compound 118]
IC50: > 11.2 µM

compound: CNc1nc2ccccc2n1-c1ncnc(Nc2cc(OC)c(OC)c(OC)c2)n1 [Compound 417]
IC50: > 11 µM

compound: COc1cc(Nc2ncnc(Nc3ccc(Cl)cc3)n2)cc(OC)c1OC [Compound 72]
IC50: > 11.6 µM

compound: CCc1ccc(Nc2nc3ccccc3n2-c2ncnc(Nc3cc(OC)c(OC)c(OC)c3)n2)cc1 [Compound 1048]
IC50: > 9.04 µM

Next item in the queue.
Item under review: Cc1cccc(Nc2ncnc(Nc3ccc4[nH]ncc4c3)n2)c1 [Compound 120] . Reported IC50?
7.56 to 11 µM
